System: Ba/F3-Flt3-transfected cells
EXPERIMENT: cells
CONDITION SET: read-out: BAF3-FLT3 (MIN IL3) pIC50 (converted)
ASSAY READOUT: IC50 (µM)
Express the result in µM but write the number alone.

Below are worked cases with known answers.
• COc1cc(OC)c(F)c(N(Cc2ncc[nH]2)c2ccc3ncc(-c4cnn(C)c4)cc3n2)c1F = 3.55
• COc1cc(OC)c(F)c(N(Cc2ncccn2)c2ccc3ncc(-c4cnn(C)c4)cc3n2)c1F = 7.76
• COc1cc(OC)c(F)c(N(CCCO)c2ccc3ncc(-c4cnn(C)c4)cc3n2)c1F = 3.89

Continue with the molecule presented below.
Inquiry: For the molecule COc1cc(OC)c(F)c(N(Cc2nccn2S(=O)(=O)N(C)C)c2ccc3ncc(-c4cnn(C)c4)cc3n2)c1F , what IC50 is on record?
Reply text: 2.45

###

System: Ba/F3-Flt3-transfected cells
EXPERIMENT: cells
CONDITION SET: 24 h, read-out: BAF3-FLT3 (MIN IL3) pIC50 (converted)
ASSAY READOUT: IC50

Below are worked cases with known answers.
* COc1cc(OC)cc(N(CCN(CCNC(C)C)C(C)C)c2ccc3ncc(-c4cnn(C)c4)cc3n2)c1 [Compound 6] | 5.01 µM
* COc1cc(OC)cc(N(CCNC(C)C)c2ccc3ncc(-c4cnn(C)c4)cc3n2)c1 [Compound 4] | 7.94 µM
* COc1cc(OC)cc(N(Cc2nccn2S(=O)(=O)N(C)C)c2ccc3ncc(-c4cnn(C)c4)cc3n2)c1 [Compound 7] | > 10 µM
* COCCN(c1cc(OC)cc(OC)c1)c1ccc2ncc(-c3cnn(C)c3)cc2n1 [Compound 3] | > 10 µM

Continue with the molecule presented below.
Inquiry: For the molecule COc1cc(OC)cc(N(CCO)c2ccc3ncc(-c4cnn(C)c4)cc3n2)c1 [Compound 1] , what IC50 is on record?
Reply text: 8.91 µM
